# key: entry, value: Ratio OD(Variant)/OD(WT)
- assayed.system: HRgpA-6H (Porphyromonas gingivalis) (UniProt P28784)
- experiment.summary: ELISA, coated HRgpA-6H

binder	Ratio OD(Variant)/OD(WT)
KB001 mouse Fab VH Y59R (Fab, V domains shown) VH: EVQLKQSGPGLVAPSQSLSITCTVSGFSLSIYSVHWVRQPPGKGLEWLGMIWGGGSSDRNSALKSRLSISKDNSKSQVFLKMNSLQTDDTAMYYCARNGNFYAMDYWGQGTSVTVSS VL: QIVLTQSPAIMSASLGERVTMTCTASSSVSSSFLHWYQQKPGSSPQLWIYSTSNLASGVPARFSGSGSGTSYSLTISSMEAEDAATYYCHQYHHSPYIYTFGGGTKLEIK	0.8
KB001 mouse Fab VH Y106R (Fab, V domains shown) VH: EVQLKQSGPGLVAPSQSLSITCTVSGFSLSIYSVHWVRQPPGKGLEWLGMIWGGGSSDYNSALKSRLSISKDNSKSQVFLKMNSLQTDDTAMYYCARNGNFYAMDRWGQGTSVTVSS VL: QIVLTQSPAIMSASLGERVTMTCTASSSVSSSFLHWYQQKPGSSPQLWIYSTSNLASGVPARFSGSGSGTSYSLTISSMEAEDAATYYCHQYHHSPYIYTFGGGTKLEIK	1.03
KB001 mouse Fab VH L63F (Fab, V domains shown) VH: EVQLKQSGPGLVAPSQSLSITCTVSGFSLSIYSVHWVRQPPGKGLEWLGMIWGGGSSDYNSAFKSRLSISKDNSKSQVFLKMNSLQTDDTAMYYCARNGNFYAMDYWGQGTSVTVSS VL: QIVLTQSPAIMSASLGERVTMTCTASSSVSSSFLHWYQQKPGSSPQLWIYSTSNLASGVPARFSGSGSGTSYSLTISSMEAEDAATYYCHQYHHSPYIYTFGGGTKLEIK	0.85
